# Protocol Description: Toxicity in ip dosed mouse assessed as median lethal dose by Bliss method
# Format: organism-based
# Assay Context: in vivo, read-out: LD
Quantity Measured: LD50

// O=S(=O)(NCC1CCCO1)c1ccc(Oc2ccc(S(=O)(=O)NCC3CCCO3)cc2)cc1 (stereo unspecified) : LD50 value = 72.6 mg/kg

----------
# Test System: C-X-C chemokine receptor type 4 (Homo sapiens)
# Sequence (P61073 whole entry): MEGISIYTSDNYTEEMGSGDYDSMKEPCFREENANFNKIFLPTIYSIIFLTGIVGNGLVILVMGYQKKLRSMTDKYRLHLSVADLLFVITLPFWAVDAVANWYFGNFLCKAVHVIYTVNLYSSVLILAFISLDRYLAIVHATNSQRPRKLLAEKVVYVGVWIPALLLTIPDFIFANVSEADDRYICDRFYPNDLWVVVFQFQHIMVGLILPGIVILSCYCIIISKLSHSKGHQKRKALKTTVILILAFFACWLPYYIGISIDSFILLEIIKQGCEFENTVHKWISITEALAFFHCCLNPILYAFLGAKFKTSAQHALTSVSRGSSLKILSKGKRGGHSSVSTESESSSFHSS
# Protocol Description: Inhibition of fluorescently labeled 12G5 antibodies binding to CXCR4 in human MDA-MB-231 cells assessed as change in fluorescence intensity incubated for 3 hrs under dark condition by FACS assay
# Assay type: cell-based
Quantity Measured: IC50 (nM)
Your answer is read as nM, so omit the unit and give the number.

Known value: C-X-C chemokine receptor type 4 (Homo sapiens) IC50 of the compound O=S(=O)(NCC1CCCO1)c1ccc(Oc2ccc(S(=O)(=O)NCC3CCCO3)cc2)cc1 (stereo unspecified) equals 254
